# Test system: PfAP2-EXP AP2 domain (GST-tagged)
# protocol_details: gcPBM binding intensity (ln(normalized median fluorescence intensity)); higher = stronger DNA binding
The full ranking holds about 25,000 sequences; the median of “ln(normalized median fluorescence intensity)” is about 8.6, and the highest 2% start at about 10. The entries come from a sample that favours the highest values as a whole.
endpoint_name: gcPBM binding intensity (ln)
Answers are plain numbers.

Field: example entries. Status: answers known.
[[record]]
entry_sequence = "TTAACCACTAAAAGTACACACATATATACCTATATA [CACACA_site6026]"
tested_system = "PfAP2-EXP AP2 domain (GST-tagged)"
test_result = 8.45

[[record]]
entry_sequence = "AAAAAATGGCTAGTTTGTACACAAAAGTTATTGCAT [XGTACX_site5381]"
tested_system = "PfAP2-EXP AP2 domain (GST-tagged)"
test_result = 8.43

[[record]]
entry_sequence = "CTGAAATTAACAAAAGTGCATAAAAATAAAAAATAT [GTGCAC_site9652]"
tested_system = "PfAP2-EXP AP2 domain (GST-tagged)"
test_result = 8.99


Could I get gcPBM binding intensity (ln) for every one of these entries?
1. TAAAGGAGCCTATGAACACACACATGTACTTATATT [CACACA_site9351]
2. ATATAGATGCATAATACACACATCAGATAATTAACC [CACACA_site6871]
3. TTAATTTACATGAACTGTACATAACATTTTTTTAAA [XGTACX_site4672]
4. TAATATACATATATATGTACATATATATATATATAT [XGTACX_site2684]
5. CAAACAAATATATGTTGTACTTATTATATATACATA [XGTACX_site2998]

1: 8.56; 2: 8.64; 3: 8.38; 4: 9.93; 5: 8.38

Could I get gcPBM binding intensity (ln) for every one of these entries?
1. TATATATATATAGATGCATGCAATTACATATAACAA [TGCATGCA_site118]
2. TGAATTTACAAAATCATGCACTTAATTACAGAATAA
3. ATTTAGAAAAATAAAACACACATATAGATGTAAATA [CACACA_site7853]
4. GATATTCATTATATATGTACATATATGTAATATATA [XGTACX_site2210]
5. ATAAATTTTTTTTTTTTTTTTTTTTTTTTTTTTTTT [CACACA_negctrl_site508]

1. 10.2
2. 8.38
3. 8.57
4. 8.55
5. 9.19

Could I get gcPBM binding intensity (ln) for every one of these entries?
1. TAAAAAATTAATAAAGTGCATAAATATTACAATATT
2. TAAATTAATAAACAAGTGCATATATATATATATATA
3. AAAATTAATAAATAAACACACATATTTATATTTATA [CACACA_site7266]
4. ACTAAAAGATATATAATTTCTTTCTTATTTATTTTT [CACACA_negctrl_site842]
5. GTTTTTTTTATATATTGTACAAATAATATATTATAT [XGTACX_site29]
6. CTAAAGTAAATTTAAGCACACACAACGAATTTTTAT [CACACA_site8599]
7. TTTTTTTTTTTGTTTTGTACATAAATTGCAACCAAT [XGTACX_site8949]

1: 8.32; 2: 10.2; 3: 8.03; 4: 8.1; 5: 9.02; 6: 8.65; 7: 8.73
